These data points were gathered from the supplement of paper PMC11061612.

system: CAL-78 (Chondrosarcoma); experiment: combination Emax (second highest fraction inhibited in the dose matrix, 72 h); higher = more inhibition; extreme values may be limits of the assay
METRIC NAME: combination Emax
Answers are plain numbers.

Here is how some compounds turned out for combination Emax.
NC1(C(=O)N[C@@H](CCO)c2ccc(Cl)cc2)CCN(c2ncnc3[nH]ccc23)CC1 [Capivasertib] + CC(=O)c1c(C)c2cnc(Nc3ccc(N4CCNCC4)cn3)nc2n(C2CCCC2)c1=O [Palbociclib] (first compound max 10 µM, 7x7, partner max 10 µM) = 0.542
COc1cccc(OCCCN)c1-c1cc(Nc2cnc(C#N)cn2)n[nH]1 [Prexasertib] + CN(C)CCCOc1ccc(-c2ccc3ncc4c(c3c2)n(C2CCOCC2)c(=O)n4C)cn1 [AZD0156] (first compound max 1 µM, 7x7, partner max 1 µM) = 0.525
CC1(C)CCC(CN2CCN(c3ccc(C(=O)NS(=O)(=O)c4ccc(NCC5CCOCC5)c([N+](=O)[O-])c4)c(Oc4cnc5[nH]ccc5c4)c3)CC2)=C(c2ccc(Cl)cc2)C1 [Venetoclax] + C[C@@H]1COCCN1C2=NC(=NC(=C2)C3(CC3)[S@](=N)(=O)C)C4=C5C=CNC5=NC=C4 [AZD6738] (first compound max 1 µM, 7x7, partner max 10 µM) = 0.605

Each compound below has a reported value. Please supply its combination Emax.
1. C[C@@H]1COCCN1c1cc(C2([S@](C)(=N)=O)CC2)nc(-c2ccnc3[nH]ccc23)n1 [AZD6738] + O=C(c1cc(Cc2n[nH]c(=O)c3ccccc23)ccc1F)N1CCN(C(=O)C2CC2)CC1 [Olaparib] (first compound max 10 µM, 7x7, partner max 10 µM)
2. C[C@@H](c1ccc2nccn2c1)n1nnc2ncc(-c3cnn(C)c3)nc21 [Savolitinib] + CN(CC[C@H](CSC1=CC=CC=C1)NC2=C(C=C(C=C2)S(=O)(=O)NC(=O)C3=CC=C(C=C3)N4CCC(CC4)[C@H](C5=CC=CC=C5C6=CC=C(C=C6)Cl)O)S(=O)(=O)C(F)(F)F)CCO [AZD4320] (first compound max 1 µM, 7x7, partner max 1 µM)
3. COc1cccc(OCCCN)c1-c1cc(Nc2cnc(C#N)cn2)n[nH]1 [Prexasertib] + C=CCn1c(=O)c2cnc(Nc3ccc(N4CCN(C)CC4)cc3)nc2n1-c1cccc(C(C)(C)O)n1 [AZD1775] (first compound max 1 µM, partner max 1 µM)
4. CN(CCO)CC[C@H](CSc1ccccc1)Nc1ccc(S(=O)(=O)NC(=O)c2ccc(N3CCC([C@@H](O)c4ccccc4-c4ccc(Cl)cc4)CC3)cc2)cc1S(=O)(=O)C(F)(F)F [AZD4320] + Cn1cnc2c(F)c(Nc3ccc(Br)cc3Cl)c(C(=O)NOCCO)cc21 [Selumetinib] (first compound max 1 µM, 7x7, partner max 3 µM)
5. CC1(C)CCC(CN2CCN(c3ccc(C(=O)NS(=O)(=O)c4ccc(NCC5CCOCC5)c([N+](=O)[O-])c4)c(Oc4cnc5[nH]ccc5c4)c3)CC2)=C(c2ccc(Cl)cc2)C1 [Venetoclax] + Cn1cnc2c(F)c(Nc3ccc(Br)cc3Cl)c(C(=O)NOCCO)cc21 [Selumetinib] (first compound max 1 µM, 7x7, partner max 3 µM)
6. COc1cccc2c1C(=O)c1c(O)c3c(c(O)c1C2=O)C[C@@](O)(C(=O)CO)C[C@@H]3O[C@H]1C[C@H](N)[C@H](O)[C@H](C)O1 [Doxorubicin] + Cc1cc2ncnn2cc1Nc1ncc2c(n1)n(C1CCOCC1)c(=O)n2C [AZD7648] (first compound max 1 µM, 7x7, partner max 10 µM)
7. COc1cccc(OCCCN)c1-c1cc(Nc2cnc(C#N)cn2)n[nH]1 [Prexasertib] + CCc1c2c(nc3ccc(O)cc13)-c1cc3c(c(=O)n1C2)COC(=O)[C@]3(O)CC [SN-38] (first compound max 1 µM, 7x7, partner max 0.3 µM)

OUTPUT:
1. 0.616
2. 0.457
3. 0.643
4. 0.557
5. 0.146
6. 0.542
7. 0.906
